assayTarget: CYP3A4 (Homo sapiens, UniProt P08684)
Sequence (P08684 whole entry): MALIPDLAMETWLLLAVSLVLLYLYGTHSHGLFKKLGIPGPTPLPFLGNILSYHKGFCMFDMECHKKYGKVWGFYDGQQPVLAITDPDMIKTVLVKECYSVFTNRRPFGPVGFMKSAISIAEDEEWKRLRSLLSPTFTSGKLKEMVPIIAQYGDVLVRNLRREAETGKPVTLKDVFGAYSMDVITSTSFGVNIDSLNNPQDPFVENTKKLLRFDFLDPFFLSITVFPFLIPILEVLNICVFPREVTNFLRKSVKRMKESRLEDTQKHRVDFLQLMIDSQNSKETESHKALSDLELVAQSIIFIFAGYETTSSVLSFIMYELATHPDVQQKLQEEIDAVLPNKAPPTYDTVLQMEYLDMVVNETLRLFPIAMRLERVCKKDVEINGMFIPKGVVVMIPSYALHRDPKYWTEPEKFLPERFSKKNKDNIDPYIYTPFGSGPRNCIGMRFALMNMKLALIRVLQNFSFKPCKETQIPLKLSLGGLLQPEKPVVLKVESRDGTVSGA
testDescription: Inhibition of human CYP3A4 at 10 uM by P450-Glo assay relative to control
Type: ADME
measuredParameter: inhibition at 10 µM (%)

Example cases with answers are listed next.
{"columns": ["chemicalSmiles", "assayTarget", "measuredParameter", "measValue"],
 "data": [
  ["COc1cccc2c1C(=O)c1oc3c(c1C2=O)c(=O)oc1ccccc13", "CYP3A4 (Homo sapiens, UniProt P08684)", "inhibition at 10 µM", 38.5],
  ["O=C1c2oc3c(c2C(=O)c2cccc(O)c21)c(=O)oc1ccccc13", "CYP3A4 (Homo sapiens, UniProt P08684)", "inhibition at 10 µM", 40.8]
]}

I: CC(=O)Oc1cccc2c1C(=O)c1oc3c(c1C2=O)c(=O)oc1ccccc13
II: O=C1c2cc3ccccc3cc2C(=O)c2c1oc1c2c(=O)oc2ccccc21
III: COc1cccc2c1C(=O)c1c(oc3c1c(=O)oc1ccccc13)C2=O
Q. Sort by inhibition at 10 µM, descending. Give the labels in the order specified.
A. I, III, II
